Test system: HCT-116
Test: NCI tumour cell line growth inhibition, 48 h
Active and inactive are the calls of the source. No stated cut-off is given here; in the data, active = GI50 up to about 1.1 µM and inactive = higher.
Just give me one of these, please: active, inactive

Record request — test call for O=C1CCCCC12CCC/C2=N\O (stereo not drawn)
inactive

Dear all, I need the recorded test outcome for COc1ccc(/C=C/c2sc3ccccc3[n+]2CCCCI)cc1OC , thank you.
inactive

Which outcome was assigned to Cn1nc(-c2ccccc2)c2c(-c3ccccc3)c3cc(Cl)ccc3nc21 in this test?
inactive

I would be grateful if you could indicate the recorded call for O=C(COC(=O)c1cccc2c(=O)c3ccccc3[nH]c12)Nc1ccc(C(=O)O)cc1 .
inactive

Please let me know the test result on file for O=C1c2ccccc2C(=O)C1C(c1ccc(F)cc1)C1C(=O)c2ccccc2C1=O .
inactive

Tell me the assay call for CN1C(=S)C(c2ccccc2)Sc2ccccc21 (stereo not drawn) please.
inactive

What call does the record list for Cc1ccc(N(C)S(=O)(=O)c2ccccc2[N+](=O)[O-])cc1 ?
inactive

In this assay, the call recorded for Cc1ccc(NC(=O)NC(=O)c2ccc([N+](=O)[O-])cc2[N+](=O)[O-])cc1Oc1ncc(Cl)cn1 was what?
active

----------
Task for the reader: assign each of the following compounds its reported GI50.
System: UACC-62
Assay: NCI tumour cell line growth inhibition, 48 h
Activity calls are given as the source filed them. Cut-off read from the data, not from the text of the source: active = GI50 up to about 1.1 µM and inactive = higher.

# example entries with known answers
[
  {
    "COMPOUND": "On1c(-c2ccccc2)c(-c2c(-c3ccccc3)n(O)c3ccccc23)c2ccccc21",
    "GI50": "55.3 µM (inactive)"
  },
  {
    "COMPOUND": "O=c1[nH]c2ccccc2c(=O)n1/N=C/c1ccc(O)cc1",
    "GI50": "42.4 µM (inactive)"
  },
  {
    "COMPOUND": "CC(=O)OC1CC2C(C)(C)C(=O)C=C[C@]2(C)C2CCC3(C)C(=CCC3[C@H](CO)C[C@H](O)C(=O)C(C)(C)O)[C@]12C (some centres not stated)",
    "GI50": "14.2 µM (inactive)"
  },
  {
    "COMPOUND": "COc1cc(/C=C/C(=O)c2sc(NNC(C)=O)nc2C)ccc1O",
    "GI50": "> 100 µM (inactive)"
  },
  {
    "COMPOUND": "O=C1C=C2CC[C@H]3[C@@H]4CC[C@H](OC(=O)c5cccc6cc7ccccc7nc56)[C@H]4CC[C@@H]3[C@H]2CC1",
    "GI50": "> 100 µM (inactive)"
  },
  {
    "COMPOUND": "O=C(O)C(=Cc1ccnc2ccccc12)C(=O)O",
    "GI50": "> 100 µM (inactive)"
  }
]

What value of GI50 has been reported for the following compound? CC(C)[C@H]1NC(=O)[C@H]2N=C(O[C@@H]2C)[C@@H]2CCCN2C(=O)[C@H](Cc2ccccc2)NC(=O)[C@@H]2COC(=N2)[C@@H](Cc2ccccc2)NC(=O)[C@@H]2COC1=N2
> 100 µM (inactive)

----------
Tested on: NCI-H460
Assay: NCI tumour cell line growth inhibition, 48 h
Active and inactive are the calls of the source. No stated cut-off is given here; in the data, active = GI50 up to about 1.1 µM and inactive = higher.
PROPERTY: GI50

// worked examples, GI50 included
[
  {
    "SAMPLE SMILES": "Clc1ccc(/N=N/c2nc3ccccc3nc2/N=N/c2ccc(Cl)cc2Cl)c(Cl)c1",
    "READING": "> 100 µM (inactive)"
  },
  {
    "SAMPLE SMILES": "Cc1cc(C)nc(NS(=O)(=O)c2ccc(Nc3c4ccccc4nc4c(C(=O)Nc5ccc(S(=O)(=O)Nc6cc(C)on6)cc5)ccc(Cl)c34)cc2)n1",
    "READING": "22 µM (inactive)"
  }
]

Please look at the following compound next.
Query GI50 on NCI-H460 for O=C(O)c1cncc(C(=O)O)c1
> 100 µM (inactive)

----------
System: SK-MEL-2
Assay: NCI tumour cell line growth inhibition, 48 h
Calls of active or inactive are those of the source. No stated cut-off is given here; in the data, active = GI50 up to about 1.1 µM and inactive = higher.
// allowed return values: active, inactive

[
  {
    "COMPOUND": "CC1C(=O)C23OC[C@@]1(C)C1(O)CC[C@@H](C)[C@]21CC3=O (stereo partly specified)",
    "CAT": "inactive"
  },
  {
    "COMPOUND": "Cc1c2ccncc2c(C)c2c1[nH]c1ccc(OC(C)(C)C)cc12",
    "CAT": "inactive"
  },
  {
    "COMPOUND": "O=c1c2cc(S(=O)(=O)Nc3c(Cl)cccc3Cl)ccc2ncn1NS(=O)(=O)c1ccc2ccccc2c1",
    "CAT": "inactive"
  }
]

How did this test come out for Cc1[nH]c2ncn(/N=C/c3ccccc3)c(=N)c2c1Cc1ccccc1 ?
inactive

Which outcome was assigned to CCOc1ccccc1NC(=O)C1=C(C)NC(C)=C(C(=O)Nc2ccccc2OCC)C1c1ccc(NC(C)=O)cc1 in this test?
inactive

// param item: CC(C)S(=O)(=O)n1c(N)nc2ccc(/C(=N/O)c3ccccc3)cc21 ; yields the recorded call
inactive

----------
Test system: SF-539
Experiment: NCI tumour cell line growth inhibition, 48 h
Active and inactive are the calls of the source. No stated cut-off is given here; in the data, active = GI50 up to about 1.1 µM and inactive = higher.
PROPERTY: GI50

[
  {
    "MOLECULE": "O=C(NC1CCN(Cc2ccccc2)CC1)c1ccc(I)cc1",
    "TESTED SYSTEM": "SF-539",
    "GI50": "78.3 µM (inactive)"
  },
  {
    "MOLECULE": "COc1cc2c(/C=C3/C(=O)Nc4cccc(Cl)c43)c(Cl)[nH]c2cc1C",
    "TESTED SYSTEM": "SF-539",
    "GI50": "1.6 µM (inactive)"
  },
  {
    "MOLECULE": "CCOC(=O)CCCc1cc(O)c2c(C)c3[nH]c4ccc(Cl)cc4c3c(C)c2n1",
    "TESTED SYSTEM": "SF-539",
    "GI50": "14.6 µM (inactive)"
  }
]

Respectfully, I request GI50 for each entry included below.
1. CCCc1c(-c2ccccc2)[nH]c2ccccc2c1=O
2. O=C(NC(=O)c1ccccc1)OC(c1ccccc1)C1CO1 (stereo unspecified)
3. CC[C@@]1(C[C@H]2C[C@@]3(C(=O)OC)c4[nH]c5ccccc5c4CCN3C2=O)COC2(CCCCC2)O1

["33.8 µM (inactive)", "> 100 µM (inactive)", "35.1 µM (inactive)"]

Working through the 4 molecules below one at a time, give GI50 for each.
1. CCCCCCCCCCCc1c(O)c(=O)c2c(oc3c(=O)c(CCCCCCCCCCC)c(O)c(=O)c3n2-c2ccc(N(C)C)cc2)c1=O
2. N#C/C(=C\c1cc(O)ccc1O)C(N)=O
3. NCC(=O)NC1(c2cc3ccccc3s2)CCCCC1
4. CCN(CC)Cc1ccc(Nc2c3ccccc3nc3ccccc23)cc1

1: 20.3 µM (inactive); 2: 50.7 µM (inactive); 3: 50.9 µM (inactive); 4: 1.8 µM (inactive)

Value sought for every listed molecule: GI50.
1. O=S1(=O)c2ccccc2Oc2ccc(C(/C=N/O)=N/O)cc21
2. CN1CCc2[nH]c3ccccc3c2C1
3. CS(=O)(=O)Nc1ccc2c(c1)oc(=O)c1ccccc12

["26 µM (inactive)", "> 100 µM (inactive)", "> 100 µM (inactive)"]

// each listed molecule needs a value for GI50
1. Cc1cc2c(cc1C)C(=O)/C(=C/c1ccccc1C(=O)O)C2
2. CC1OC(OC2C(OC(=O)[C@]34CCC(C)(C)C[C@H]3C3=CC[C@@H]5[C@@]6(C)CC[C@H](OC7OC(C(=O)O)C(O)C(OC8OCC(O)C(O)C8O)C7O)C(C)(C)[C@@H]6CC[C@@]5(C)[C@]3(C)CC4)OCC(O)C2O)C(O)C(OC2OCC(O)C(O)C2O)C1OC1OCC(O)C(OC2OCC(O)C(O)C2O)C1O (stereo partly specified)
3. CN(C)CCCn1c(Cc2ccc(Cl)cc2)nc2cc(C(F)(F)F)ccc21
4. CCC1=CC(OCc2ccccc2)C(CCN(Cc2ccccc2)C(=O)OCc2ccccc2)C1 (stereo unspecified)
5. CC1(CC(=O)O)OC2CCCCCC2O1.NCc1ccccc1 (stereo unspecified)
6. CCOC(=O)c1ccc(N2C(=O)/C(=C\OC)c3ccccc3C2=O)cc1

["18.7 µM (inactive)", "20.5 µM (inactive)", "16.3 µM (inactive)", "20.6 µM (inactive)", "> 100 µM (inactive)", "32.4 µM (inactive)"]

----------
Test system: LOX IMVI
Experiment: NCI tumour cell line growth inhibition, 48 h
Calls of active or inactive are those of the source. Rule as the data show it: active = GI50 up to about 1.1 µM and inactive = higher.
For each record, write down the corresponding GI50.

List reported GI50 for each of these molecules:
1. O=C(O)CCCCn1ccc(=O)[nH]c1=O
2. CC1=Nn2c(nnc2-c2ccc(N)cc2)NC(C)(C)C1
3. O=C(/C=C/c1ccccc1)NC1C=Nc2ccc(Cl)cc2NC1=O (stereo unspecified)
4. CCOc1ccnc2c(OC)c(C)c3nc4ccccc4nc3c12
5. CCN(CC)Cc1ccc(Nc2c3ccccc3nc3ccccc23)cc1

1. > 100 µM (inactive)
2. > 100 µM (inactive)
3. 18.8 µM (inactive)
4. > 100 µM (inactive)
5. 1.56 µM (inactive)

Endpoint output: GI50 of O=C1NC2=NN=C(c3ccc(Br)cc3)CN2NC12c1ccccc1-c1ccccc12 . Value?
> 100 µM (inactive)
